- subject of test: human KDR (VEGFR2) on cells (human, UniProt P35968 20-1356)
- Sequence (P35968 20-1356): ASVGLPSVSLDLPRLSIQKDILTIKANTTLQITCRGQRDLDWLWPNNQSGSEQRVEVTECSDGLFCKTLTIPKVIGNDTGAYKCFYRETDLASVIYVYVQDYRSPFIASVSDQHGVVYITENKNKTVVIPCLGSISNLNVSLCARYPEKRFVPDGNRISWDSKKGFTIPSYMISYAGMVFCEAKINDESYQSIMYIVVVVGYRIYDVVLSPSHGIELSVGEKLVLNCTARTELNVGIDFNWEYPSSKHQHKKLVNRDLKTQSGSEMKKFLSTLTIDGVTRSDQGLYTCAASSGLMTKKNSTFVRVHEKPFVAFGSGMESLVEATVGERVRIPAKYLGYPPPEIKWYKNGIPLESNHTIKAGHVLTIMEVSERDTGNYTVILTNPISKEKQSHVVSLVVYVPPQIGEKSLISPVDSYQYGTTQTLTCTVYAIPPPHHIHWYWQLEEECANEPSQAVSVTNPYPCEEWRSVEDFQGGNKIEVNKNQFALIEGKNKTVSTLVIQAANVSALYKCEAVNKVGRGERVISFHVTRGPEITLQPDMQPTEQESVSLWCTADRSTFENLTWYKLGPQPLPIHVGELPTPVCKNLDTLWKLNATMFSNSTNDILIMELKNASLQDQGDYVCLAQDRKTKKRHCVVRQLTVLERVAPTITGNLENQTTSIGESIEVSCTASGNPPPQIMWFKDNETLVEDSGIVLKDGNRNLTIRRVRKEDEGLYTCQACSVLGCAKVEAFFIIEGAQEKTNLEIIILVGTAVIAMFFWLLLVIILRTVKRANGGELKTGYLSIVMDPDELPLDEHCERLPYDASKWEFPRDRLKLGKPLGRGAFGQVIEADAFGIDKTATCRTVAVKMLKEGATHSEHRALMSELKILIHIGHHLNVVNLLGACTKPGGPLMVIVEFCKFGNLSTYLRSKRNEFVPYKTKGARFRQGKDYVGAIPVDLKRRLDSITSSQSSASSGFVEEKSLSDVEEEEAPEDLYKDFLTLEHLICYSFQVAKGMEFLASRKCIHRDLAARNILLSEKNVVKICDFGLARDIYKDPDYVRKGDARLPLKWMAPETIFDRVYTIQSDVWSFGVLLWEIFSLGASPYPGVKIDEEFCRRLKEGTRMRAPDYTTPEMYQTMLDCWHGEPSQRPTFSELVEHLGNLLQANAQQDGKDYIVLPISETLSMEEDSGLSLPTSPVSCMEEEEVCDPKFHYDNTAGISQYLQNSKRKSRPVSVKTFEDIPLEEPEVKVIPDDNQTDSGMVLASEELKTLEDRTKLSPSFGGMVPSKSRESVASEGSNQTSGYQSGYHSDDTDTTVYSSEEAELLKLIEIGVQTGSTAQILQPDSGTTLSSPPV
- experimental protocol: cell-based or functional assay
The label criterion met is reserved for HUVEC survival (n = 2) 1:20 dilution of supernatant (RLU) strictly under 5000 RLU; criterion not met covers values equal to or above it.

**Q:** Say whether its HUVEC survival (n = 2) 1:20 dilution of supernatant (RLU) is strictly beneath 5000 RLU. Entry: anti-KDR monoclonal antibody 31E11 (antibody, V domains shown, Fully human mAb from XenoMouse (IgG2 or IgG4 strain); hybridoma supernatant) VH: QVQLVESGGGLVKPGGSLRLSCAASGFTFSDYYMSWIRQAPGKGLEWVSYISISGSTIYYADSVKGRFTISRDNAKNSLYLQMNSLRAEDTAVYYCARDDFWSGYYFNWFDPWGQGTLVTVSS VL: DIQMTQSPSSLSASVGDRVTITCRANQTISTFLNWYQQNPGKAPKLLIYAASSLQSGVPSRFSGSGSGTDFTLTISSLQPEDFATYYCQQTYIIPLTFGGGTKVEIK
**A:** criterion not met

**Q:** Is HUVEC survival (n = 2) 1:20 dilution of supernatant (RLU) strictly under 5000 RLU for the entry anti-KDR monoclonal antibody 29H3 (antibody, V domains shown, Fully human mAb from XenoMouse (IgG2 or IgG4 strain); hybridoma supernatant) VH: QVQLVQSGAEVKKPGASVKVSCKASGYTFTSYDINWVRQATGQGLEWMGWMNPNSGKTGYAQKFQGRVTMTRNTSINTAYMELSSLRSEDTAVYYCARGGYSNLGWFDPWGQGTLVTVSS VL: DIQMTQSPSSVSASVGDRVTITCRASQGISSWLVWYHQKPGKAPKLLIYGASSLQSGVPSRFSGSGSGTDFTLTISSLQPEDFATYYCQQANNFPFTFGPGTKVDIK ?
**A:** criterion met

**Q:** Please check: HUVEC survival (n = 2) 1:20 dilution of supernatant (RLU) for anti-KDR monoclonal antibody 32G7 (antibody, V domains shown, Fully human mAb from XenoMouse (IgG2 or IgG4 strain); hybridoma supernatant) VH: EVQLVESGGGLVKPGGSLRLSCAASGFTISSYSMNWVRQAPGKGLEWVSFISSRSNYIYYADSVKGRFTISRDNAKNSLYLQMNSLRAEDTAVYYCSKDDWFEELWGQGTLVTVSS VL: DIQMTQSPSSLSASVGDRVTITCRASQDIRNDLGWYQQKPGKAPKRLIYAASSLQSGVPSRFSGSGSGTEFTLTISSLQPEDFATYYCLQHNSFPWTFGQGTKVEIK , strictly under 5000 RLU or not?
**A:** criterion not met

**Q:** Dear reviewer, please state whether anti-KDR monoclonal antibody 27A3 (antibody, V domains shown, Fully human mAb from XenoMouse (IgG2 or IgG4 strain); hybridoma supernatant) VH: QLQLQESGPGLVKPSETLSLTCTVSGGSISSRSDYWGWIRQPPGKGLEWIGTIYYSGDTYYNPSLKSRVTISVDTSKNQFSLKLSSVTAADTAVYYCARQQLVLYYFDYWGQGTLVTVSS VL: EIVLTQSPGTLSLSPGERATLSCRASQSVSSSYLAWYQQKPGQAPRLLIYATSNRATGIPDRFSGSGSGTDFTLTISRLEPEDFAVYYCQQHGSSPPLTFGGGTKVEIK has HUVEC survival (n = 2) 1:20 dilution of supernatant (RLU) strictly beneath 5000 RLU.
**A:** criterion met

**Q:** # TODO verify HUVEC survival (n = 2) 1:20 dilution of supernatant (RLU) < 5000 RLU strictly for this binder: anti-KDR monoclonal antibody 21H6 (antibody, V domains shown, Fully human mAb from XenoMouse; hybridoma supernatant) VH: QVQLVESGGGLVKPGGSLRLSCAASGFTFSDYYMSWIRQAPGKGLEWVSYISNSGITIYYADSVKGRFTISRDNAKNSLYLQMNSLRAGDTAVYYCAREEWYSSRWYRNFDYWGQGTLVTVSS VL: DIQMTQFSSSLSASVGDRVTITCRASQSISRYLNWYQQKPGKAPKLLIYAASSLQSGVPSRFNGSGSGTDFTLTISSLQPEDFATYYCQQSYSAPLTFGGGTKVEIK
**A:** criterion met
